Protocol Text: method code SF-AS, from PMID: 4083029
Experimental Conditions: pH 5.0

| Smiles Input | logD |
| --- | --- |
| Cc1ccc2c(=O)n3c(nc2c1)CCCCC3 | 2.44 |
| O=c1c2c(nc3n1CCCCCC3)CCC2 | 1.61 |
| O=c1c2c(nc3ccccn13)CCCCC2 | 1.63 |
| Cc1cccc2nc3n(c(=O)c12)CCC3 | 1.59 |
| Cc1ccc2nc3c(c(=O)n2c1)CCCCC3 | 2.07 |
| O=c1c2c(nc3n1CCCCCC3)CCCCC2 | 2.43 |
| O=c1c2c(nc3n1CCCC3)CCCCC2 | 1.6 |
| O=c1c2c(nc3ccccn13)CCCCCC2 | 2.29 |
| O=c1c2c(nc3n1CCCCC3)CCCCCC2 | 2.41 |
| Cc1cccc2nc3c(c(=O)n12)CCCCC3 | 1.91 |
| Cc1ccn2c(=O)c3c(nc2c1)CCCCC3 | 1.86 |
| O=c1c2ccccc2nc2n1CCCC2 | 1.49 |
| O=c1c2c(nc3n1CCCCCC3)CCCC2 | 2.13 |
